# System: Scedosporium aurantiacum CBS 136046;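 also: conidia screened in RPMI 1640 medium under 5% CO2, growth read by spectrophotometer, medium with 0.5% DMSO serving as the untreated reference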
# experimental.details: growth inhibition relative to DMSO control (OD600); higher = more antifungal activity, active = 80 or more; extreme values may be limits of the assay
# condition.context: 5 µM; 72 h; 37 °C
Reported values of growth inhibition for individual entries
metric.name: growth inhibition (%)

molecule | metric.name | unit.symbol | observed.measurement
NC[C@H]1OB(O)c2c(OCCCO)cccc21 | growth inhibition | % | 34.1
CC(=O)N1c2ccccc2NC2=C(C(=O)CC(C)(C)C2)C1c1ccc(OCc2ccccc2)cc1 (stereo unspecified) | growth inhibition | % | 15.4
O=P(O)(O)C(CCCc1cccc(Oc2ccccc2)c1)S(=O)(=O)O (stereo unspecified) | growth inhibition | % | 2.84
CN1c2ccc(Cl)cc2N(c2ccccc2)C(=O)c2cn(Cc3ccc(CN4CCOCC4)cc3)nc21 | growth inhibition | % | 17.1
Clc1cc2nc(C3CCNCC3)n(Cc3ccc(CNCCc4c[nH]cn4)cc3)c2cc1Cl | growth inhibition | % | 16.1
CC(C)(C)c1ccc(OCCn2nc(C(=O)O)c3ccccc3c2=O)cc1 | growth inhibition | % | 16.2
Oc1ccc2[nH]c(-c3ccccc3)nc2c1 | growth inhibition | % | 26.7
CCCC1(C2CC2)c2cc(Cl)ccc2NC(=O)N1C (stereo unspecified) | growth inhibition | % | 18.8
O=C(c1cc(O)nc2ccccc12)N1CCN(c2ccccc2)CC1 | growth inhibition | % | 5.66
COc1cc(Cc2cc(N)nc(N)n2)cc(OC)c1OC | growth inhibition | % | 11.7
CCCCCOc1ccc(/C=C2\Oc3c(ccc(O)c3O)C2=O)c(O)c1 | growth inhibition | % | 1.85
